Test system: MIA PaCa-2 cells
ASSAY REMARKS: In-vitro anti-proliferative activity in combination with gemcitabine on MIA PaCa-2 cells
Assay type: cell-based
PROTOCOL CONDITIONS: 72 h, with 20 nM gemcitabine, read-out: in combination with 20 nM GMC IC50
Response field label takes criterion met when IC50 is strictly below 10 nM and criterion not met in all other cases.

CN1CCc2c(cc(Nc3ncc(C#N)c(Nc4cccc(N=S(C)(C)=O)n4)n3)cc2C2=CCCCC2)C1 ... criterion met
CC1CN(c2cc(Nc3ncc(C#N)c(Nc4cccc(N=S(C)(C)=O)n4)n3)cc3c2CCN(C)C3)CCO1 (stereo not shown) ... criterion not met
CN1CCc2ccc(Nc3ncc(C#N)c(Nc4cccc(N=S(C)(C)=O)n4)n3)cc2CC1 ... criterion not met
CN1CCc2c(cc(Nc3ncc(C#N)c(Nc4cccc(N=S(C)(C)=O)n4)n3)cc2C(F)(F)F)C1 ... criterion not met
Cc1cc(Nc2ncc(C#N)c(Nc3cccc(N=S(C)(C)=O)n3)n2)cc2c1CCN(C)C2 ... criterion met
CS(C)(=O)=Nc1cccc(Nc2nc(Nc3ccc4c(c3)CCC(N3CCCC3)CC4)ncc2C#N)n1 (stereo not shown) ... criterion met

Next:
Does CC(C)c1cc(Nc2ncc(C#N)c(Nc3cccc(N=S(C)(C)=O)n3)n2)cc2c1CCN(C)C2 have IC50 strictly under 10 nM?
criterion met

* * *

MEASURED TARGET: recombinant protein Wee-1 (Homo sapiens (Human), UniProt P30291)
Sequence (P30291 whole entry): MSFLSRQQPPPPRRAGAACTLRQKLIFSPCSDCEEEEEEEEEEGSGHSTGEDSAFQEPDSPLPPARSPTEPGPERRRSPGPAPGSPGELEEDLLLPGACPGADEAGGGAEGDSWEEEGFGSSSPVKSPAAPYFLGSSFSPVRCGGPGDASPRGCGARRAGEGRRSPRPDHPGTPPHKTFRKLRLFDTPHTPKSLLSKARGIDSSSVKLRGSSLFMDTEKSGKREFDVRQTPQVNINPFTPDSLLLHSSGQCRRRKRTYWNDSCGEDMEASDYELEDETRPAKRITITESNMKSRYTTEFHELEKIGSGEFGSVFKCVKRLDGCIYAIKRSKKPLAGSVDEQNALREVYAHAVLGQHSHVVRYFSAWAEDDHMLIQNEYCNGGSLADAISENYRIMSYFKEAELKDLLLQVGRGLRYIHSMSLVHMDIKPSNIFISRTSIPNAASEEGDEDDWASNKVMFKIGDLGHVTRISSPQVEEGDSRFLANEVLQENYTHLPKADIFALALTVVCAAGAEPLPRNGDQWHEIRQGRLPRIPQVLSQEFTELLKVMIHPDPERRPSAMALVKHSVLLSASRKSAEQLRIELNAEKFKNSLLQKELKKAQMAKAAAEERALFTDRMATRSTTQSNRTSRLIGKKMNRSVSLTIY
ASSAY REMARKS: HTRF assay for inhibiting enzymatic activity of recombinant protein Wee-1
PROTOCOL CONDITIONS: compounds up to 200 nM, read-out: (IC50) Inhibitory activity against recombinant protein Wee-1
pIC50: −log10 of the molar value.
Consider the following compounds; for each one, report its pIC50.

CN1CCc2ccc(Nc3ncc(C#N)c(Nc4nccc(N=S(C)(C)=O)n4)n3)cc2C1 ... ≥ 8.00
CN1CCN(c2cc(Nc3ncc(C#N)c(Nc4cccc(N=S(C)(C)=O)n4)n3)cc3c2CCN(C)C3)CC1 ... ≥ 8.00
Cc1cc(Nc2ncc(C#N)c(Nc3cccc(N=S(C)(C)=O)n3)n2)cc2c1CCN(C)C2 ... ≥ 8.00
COc1cc(Nc2ncc(C#N)c(Nc3cccc(N=S(C)(C)=O)n3)n2)cc2c1C1(CC1)CN(C)C2 ... ≥ 8.00
CN1CCc2ccc(Nc3ncc(C#N)c(Nc4nc(N=S(C)(C)=O)cc5ccccc45)n3)cc2C1 ... ≥ 8.00

Provide reported pIC50 for each item, in the same order as listed.
1. CN1CCc2ccc(Nc3ncc(C4CC4)c(Nc4cccc(N=S(C)(C)=O)n4)n3)cc2C1
2. CN1CCc2ccc(Nc3ncc(-c4ccc(F)nc4)c(Nc4cccc(N=S(C)(C)=O)n4)n3)cc2C1

1. < 7.30
2. 7.30 to 8.00

* * *

MEASURED TARGET: recombinant protein Wee-1 (Homo sapiens (Human))
ASSAY REMARKS: HTRF assay for inhibiting enzymatic activity of recombinant protein Wee-1
PROTOCOL CONDITIONS: compounds up to 200 nM, read-out: (IC50) Inhibitory activity against recombinant protein Wee-1
Description: The inhibitory effect of the compounds on the enzyme activity of recombinant protein Wee-1 was determined by HTRF. The procedures are as follows: After DMSO or serially diluted compounds (up to 200 nM, 1:5 diluted) and recombinant proteins were co-incubated in a kinase buffer at 37° C. for 30 min before Fluorescein-PolyGAT and ATP were added, and the reaction was initiated by addition of a substrate. […]
ASSAY METRIC: IC50

Worked cases, answers included:
CN1CCc2ccc(Nc3ncc(C#N)c(Nc4cncc(N=S(C)(C)=O)c4)n3)cc2C1 [Compound 66] ... ≤ 0.01 µM
CN(C)C1CCc2ccc(Nc3ncc(C#N)c(Nc4cccc(N=S(C)(C)=O)n4)n3)cc2C1 (stereo not drawn) [Compound 51] ... ≤ 0.01 µM
CN1CCc2ccc(Nc3ncc(C#N)c(Nc4nc(N=S(C)(C)=O)cc5c4CCN5)n3)cc2C1 [Compound 82] ... ≤ 0.01 µM
CN1CCc2c(cc(Nc3ncc(C#N)c(Nc4ccc(F)c(N=S(C)(C)=O)n4)n3)cc2C2=CCCC2)C1 [Compound 100] ... ≤ 0.01 µM
CN1Cc2cc(Nc3ncc(C#N)c(Nc4cccc(N=S(C)(C)=O)n4)n3)ccc2C(C)(C)C1 [Compound 35] ... ≤ 0.01 µM

Provide reported IC50 for each item, in the same order as listed.
1. CN1CCc2c(cc(Nc3ncc(C#N)c(Nc4ccnc(N=S(C)(C)=O)n4)n3)cc2C2CC2)C1 [Compound 140]
2. Cc1cc(Nc2ncc(C#N)c(Nc3cccc(N=S(C)(C)=O)n3)n2)cc2c1C1(CC1)CN(C)C2 [Compound 30]
3. COc1cc(Nc2ncc(C#N)c(Nc3ccc(F)c(N=S(C)(C)=O)n3)n2)cc2c1CCN(C)C2 [Compound 90]
4. CN1CCc2c(cc(Nc3ncc(C#N)c(Nc4nccc(N=S(C)(C)=O)n4)n3)cc2C2CC2)C1 [Compound 139]
5. CN1CCc2ccc(Nc3ncc(C(N)=O)c(Nc4cccc(N=S(C)(C)=O)n4)n3)cc2C1 [Compound 6]

1: ≤ 0.01 µM; 2: ≤ 0.01 µM; 3: ≤ 0.01 µM; 4: ≤ 0.01 µM; 5: > 0.05 µM

Provide reported IC50 for each item, in the same order as listed.
1. CN1CCc2ccc(Nc3ncc(-c4ccco4)c(Nc4cccc(N=S(C)(C)=O)n4)n3)cc2C1 [Compound 9]
2. CN1CCc2c(cc(Nc3ncc(C#N)c(Nc4cccc(N=S(C)(C)=O)n4)n3)cc2N(C)C)C1 [Compound 44]
3. CCc1cc(Nc2ncc(C#N)c(Nc3nccc(N=S(C)(C)=O)n3)n2)cc2c1CCN(C)C2 [Compound 143]
4. CN1CCc2c(cc(Nc3ncc(C#N)c(Nc4cccc(N=S(C)(C)=O)n4)n3)cc2N2CCC2)C1 [Compound 95]

["> 0.05 µM", "≤ 0.01 µM", "≤ 0.01 µM", "≤ 0.01 µM"]

Using known records, supply IC50 for CN1CCc2ccc(Nc3ncc(C(=O)N(C)C)c(Nc4cccc(N=S(C)(C)=O)n4)n3)cc2C1 [Compound 8]
> 0.05 µM
